molecular target: Muscarinic acetylcholine receptor M4 (Homo sapiens, UniProt P08173); assay: Agonist activity at human Muscarinic acetylcholine receptor M4 expressed in HEK cells co-expressing Glosensor construct assessed as decrease in isoproterenol-induced cAMP accumulation incubated for 7 mins in presence of isoproterenol by Glosensor cAMP reagent/plate reader based luminescence assay; format: functional, cell-based
Sequence (P08173 whole entry): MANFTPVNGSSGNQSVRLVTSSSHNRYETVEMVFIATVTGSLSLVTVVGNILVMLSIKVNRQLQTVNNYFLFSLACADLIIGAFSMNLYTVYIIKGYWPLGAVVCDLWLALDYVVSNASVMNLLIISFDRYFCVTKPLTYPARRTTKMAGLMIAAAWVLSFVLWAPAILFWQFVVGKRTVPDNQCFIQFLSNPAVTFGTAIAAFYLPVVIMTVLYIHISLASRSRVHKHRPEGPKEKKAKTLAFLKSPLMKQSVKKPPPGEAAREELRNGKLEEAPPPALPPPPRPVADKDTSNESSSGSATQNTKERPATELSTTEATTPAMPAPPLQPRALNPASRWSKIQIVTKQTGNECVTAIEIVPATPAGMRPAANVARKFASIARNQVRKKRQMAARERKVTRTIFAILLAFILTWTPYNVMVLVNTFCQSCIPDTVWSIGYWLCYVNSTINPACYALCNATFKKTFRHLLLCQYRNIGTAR
pEC50: −log10 of the molar value.
The reader will find reported pEC50 values listed item by item below.
assay metric: pEC50

INSERT INTO measurements (compound, target, result) VALUES
  ('COc1cccnc1C1CCN(C2CCCN(c3nccs3)CC2)CC1 (stereo unspecified)', 'Muscarinic acetylcholine receptor M4 (Homo sapiens, UniProt P08173)', '< 5.00'),
  ('COc1cccnc1C1CCN(C2CCCN(c3cnc(C)cn3)CC2)CC1 (stereo unspecified)', 'Muscarinic acetylcholine receptor M4 (Homo sapiens, UniProt P08173)', '< 5.38'),
  ('CCCC(=O)N1CCCC(N2CCC(c3ncccc3OC)CC2)CC1 (stereo unspecified)', 'Muscarinic acetylcholine receptor M4 (Homo sapiens, UniProt P08173)', '< 5.05'),
  ('COc1cccnc1C1CCN(C2CCCN(c3nncs3)CC2)CC1 (stereo unspecified)', 'Muscarinic acetylcholine receptor M4 (Homo sapiens, UniProt P08173)', '< 5.00'),
  ('COc1cccnc1C1CCN(C2CCCN(c3nsnc3C)CC2)CC1 (stereo unspecified)', 'Muscarinic acetylcholine receptor M4 (Homo sapiens, UniProt P08173)', 6.33),
  ('COc1cccnc1C1CCN(C2CCCN(c3ncns3)CC2)CC1 (stereo unspecified)', 'Muscarinic acetylcholine receptor M4 (Homo sapiens, UniProt P08173)', 5.96);
